- Assayed Target: T1, Human B7H4 ECD (SV), splice variant, 10His_FLAG (human)
- T1 construct: also called B7-H4-SV
- Method Description: Octet; summary table, repeats Table 9 (hIgG1-TM)
pKd: −log10 of the molar value.
Assay Readout: pKd

Binder: ZY0EPQ-E02 human IgG1-TM (antibody, V domains shown) VH: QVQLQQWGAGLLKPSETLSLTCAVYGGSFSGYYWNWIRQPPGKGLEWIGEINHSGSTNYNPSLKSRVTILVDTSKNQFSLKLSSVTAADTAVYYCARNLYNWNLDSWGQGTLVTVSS VL: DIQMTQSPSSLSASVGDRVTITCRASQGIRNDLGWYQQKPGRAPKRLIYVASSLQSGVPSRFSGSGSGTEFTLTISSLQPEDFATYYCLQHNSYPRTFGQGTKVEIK
Measured Result: 5.78
--
Binder: ZY0EO5-E07 human IgG1-TM (antibody, V domains shown, also called ZY0E05-E07; E05-E07) VH: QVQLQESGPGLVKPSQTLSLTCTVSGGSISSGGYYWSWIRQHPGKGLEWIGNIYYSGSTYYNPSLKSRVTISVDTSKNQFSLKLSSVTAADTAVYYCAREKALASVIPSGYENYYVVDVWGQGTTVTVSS VL: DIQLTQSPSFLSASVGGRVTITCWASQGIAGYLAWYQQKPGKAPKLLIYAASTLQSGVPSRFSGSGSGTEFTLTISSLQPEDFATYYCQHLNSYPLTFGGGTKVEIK
Measured Result: 6.58
--
Binder: ZY0EOB-F05 human IgG1-TM (antibody, V domains shown) VH: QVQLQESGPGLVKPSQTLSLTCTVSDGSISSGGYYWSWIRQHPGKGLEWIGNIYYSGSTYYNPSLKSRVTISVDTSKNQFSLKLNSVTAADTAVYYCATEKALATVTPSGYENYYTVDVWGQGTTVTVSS VL: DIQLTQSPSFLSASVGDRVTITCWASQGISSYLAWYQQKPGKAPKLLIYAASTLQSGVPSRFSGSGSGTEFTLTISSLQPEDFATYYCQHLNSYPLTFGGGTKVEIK
Measured Result: 6.76
--
Binder: ZY0EQD-E02 human IgG1-TM (antibody, V domains shown) VH: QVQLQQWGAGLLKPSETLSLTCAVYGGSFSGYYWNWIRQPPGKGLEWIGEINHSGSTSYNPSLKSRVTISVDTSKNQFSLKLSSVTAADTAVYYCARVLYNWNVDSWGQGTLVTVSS VL: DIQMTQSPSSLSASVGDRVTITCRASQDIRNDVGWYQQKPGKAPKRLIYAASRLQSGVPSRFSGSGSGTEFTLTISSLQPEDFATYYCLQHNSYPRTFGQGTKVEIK
Measured Result: 6.10
